- TESTED_SYSTEM: Carbonic anhydrase
- Format: protein assay
- Description: Inhibition of Carbonic anhydrase enzyme in rabbits
Categories are assigned from the measured IC50 using these intervals: band A = under 400 nM, band B = from 400 nM up to 500 nM, band C = 500 nM and over

[Q] Bin? COC(=O)CC(=O)Nc1nnc(S(N)(=O)=O)s1
[A] band C

[Q] Band for CCC(C)OC(=O)CCC(=O)Nc1nnc(S(N)(=O)=O)s1 (stereo not drawn) ?
[A] band A

[Q] // return the class label for NS(=O)(=O)c1nnc(NC(=O)CCCC(=O)O)s1
[A] band C

[Q] Lab log: COC(=O)CCC(=O)Nc1nnc(S(N)(=O)=O)s1 — assign IC50 category
[A] band C

[Q] Which of the defined bands does the recorded IC50 of NCCCCC(=O)Nc1nnc(S(N)(=O)=O)s1 sit within?
[A] band B

[Q] Exam item: assign COC(=O)CCC(=O)/N=c1/sc(S(N)(=O)=O)nn1C to the correct category.
[A] band B

[Q] Each molecule maps to one class by IC50. Which class for COC(=O)CCCCCCCC(=O)Nc1nnc(S(N)(=O)=O)s1 ?
[A] band C

[Q] Class label required: CCCCCCCCCCCCOC(=O)CCC(=O)Nc1nnc(S(N)(=O)=O)s1
[A] band C

[Q] Category of COC(=O)CCCCC(=O)Nc1nnc(S(N)(=O)=O)s1 , please.
[A] band A

[Q] Determine which band this molecule sits in: CCCCCOC(=O)CCC(=O)/N=c1/sc(S(N)(=O)=O)nn1C
[A] band A

[Q] Categorize the following entry: COC(=O)CCCC(=O)Nc1nnc(S(N)(=O)=O)s1
[A] band C

[Q] Each molecule maps to one class by IC50. Which class for NS(=O)(=O)c1nnc(NC(=O)CCCCCCCC(=O)O)s1 ?
[A] band B

###

Can you tell me IOP for the items I'm about to list?
- Species on record: Oryctolagus cuniculus
- PROTOCOL_DESCRIPTION: Effect on intraocular pressure in right eye was tested by using transition ocular hypertension model at 10 min.
- Type: functional
The figure you give is taken to be in mmHg; do not add the unit.

[Q] Return reported IOP; argument: CCCCCOC(=O)CCC(=O)Nc1nnc(S(N)(=O)=O)s1
[A] 22.67

[Q] Can you look up the measured IOP of COC(=O)CCC(=O)Nc1nnc(S(N)(=O)=O)s1 for me?
[A] 25.33

[Q] What value of IOP has been reported for the following compound? CCCCCOC(=O)CCC(=O)/N=c1/sc(S(N)(=O)=O)nn1C
[A] 20.67

[Q] Query: IOP; subject: NS(=O)(=O)c1nnc(NC(=O)CCCC(=O)O)s1
[A] 21.17

[Q] Param item = NS(=O)(=O)c1nnc(NC(=O)CCC(=O)O)s1 ; retrieve measured IOP.
[A] 19.33

[Q] Given the compound CCOC(=O)CCC(=O)Nc1nnc(S(N)(=O)=O)s1 , what is its reported IOP?
[A] 20.33

###

Hi there, I'd appreciate the recorded IOP for every entry that follows.
- Organism: Oryctolagus cuniculus
- PROTOCOL_DESCRIPTION: Effect on intraocular pressure in right eye was tested by using transition ocular hypertension model at 10 min.
- Type: functional
Put down the number, then write its unit next to it.

[Q] For NCCCCC(=O)Nc1nnc(S(N)(=O)=O)s1 , what is its reported IOP?
[A] 24 mmHg

[Q] Entry CCC(C)OC(=O)CCC(=O)Nc1nnc(S(N)(=O)=O)s1 (stereo unspecified) : reported IOP = ?
[A] 21.5 mmHg

[Q] Suppose we examine the compound NS(=O)(=O)c1nnc(NC(=O)CCCCCCCC(=O)O)s1 ; what IOP value has been reported?
[A] 25.17 mmHg

[Q] Any idea what IOP was measured for COC(=O)CC(=O)Nc1nnc(S(N)(=O)=O)s1 ?
[A] 23.17 mmHg

[Q] State the recorded IOP for this entry: CC(C)(C)NC[C@H](O)COc1nsnc1N1CCOCC1
[A] 18.57 mmHg

[Q] Item under review: COC(=O)CCC(=O)/N=c1/sc(S(N)(=O)=O)nn1C . Reported IOP?
[A] 24.67 mmHg

###

- Species on record: Oryctolagus cuniculus
- PROTOCOL_DESCRIPTION: Effect on intraocular pressure in right eye was tested by using transition ocular hypertension model at 0 min.
- Assay type: functional
Answer each item with its documented IOP.
Lab book: enter the figure in mmHg, no units written.

[Q] For the compound NS(=O)(=O)c1nnc(NC(=O)CCCCCCCC(=O)O)s1 , what IOP is on record?
[A] 16.17

[Q] What IOP value was documented for this compound, COC(=O)CCC(=O)/N=c1/sc(S(N)(=O)=O)nn1C ?
[A] 14.83

[Q] Form field: reported IOP of NS(=O)(=O)c1nnc(NC(=O)CCCCC(=O)O)s1
[A] 16.33

[Q] IOP for CC(C)(C)NC[C@H](O)COc1nsnc1N1CCOCC1 ?
[A] 15.77

[Q] What does the record list as IOP for COC(=O)CCC(=O)Nc1nnc(S(N)(=O)=O)s1 ?
[A] 15.17

[Q] So what does the record say about IOP for NCCCCC(=O)Nc1nnc(S(N)(=O)=O)s1 ?
[A] 15

[Q] What does the data say about its IOP? Entry: NS(=O)(=O)c1nnc(NC(=O)CCCC(=O)O)s1
[A] 14.67

[Q] Given COC(=O)CC(=O)Nc1nnc(S(N)(=O)=O)s1 , state its recorded IOP.
[A] 15.87

[Q] Any idea what IOP was measured for CCOC(=O)CCC(=O)Nc1nnc(S(N)(=O)=O)s1 ?
[A] 13.33

[Q] Would you mind telling me what IOP value was observed for CCCCCOC(=O)CCC(=O)Nc1nnc(S(N)(=O)=O)s1 ?
[A] 15

[Q] Requested read-out: IOP. Entry: CCC(C)OC(=O)CCC(=O)Nc1nnc(S(N)(=O)=O)s1 (stereo not drawn)
[A] 14.67

[Q] // returns reported IOP for input CCCCCOC(=O)CCC(=O)/N=c1/sc(S(N)(=O)=O)nn1C
[A] 15.5

[Q] Quick one: IOP for NS(=O)(=O)c1nnc(NC(=O)CCC(=O)O)s1 ?
[A] 14.33

###

- Organism: Oryctolagus cuniculus
- PROTOCOL_DESCRIPTION: Effect on intraocular pressure in left eye was tested by using transition ocular hypertension model at 40 min.
- Format: functional
RECORDED_METRIC: IOP (mmHg)
I only need the number, in mmHg, no unit after it.

[Q] Fill in: IOP of NS(=O)(=O)c1nnc(NC(=O)CCCCCCCC(=O)O)s1 is ___
[A] 17.5

[Q] What IOP value was documented for this compound, NS(=O)(=O)c1nnc(NC(=O)CCC(=O)O)s1 ?
[A] 19

[Q] Recorded IOP for CCCCCOC(=O)CCC(=O)Nc1nnc(S(N)(=O)=O)s1 , please?
[A] 18.83

[Q] Any idea what IOP was measured for CCOC(=O)CCC(=O)Nc1nnc(S(N)(=O)=O)s1 ?
[A] 17.67

[Q] Report IOP for NCCCCC(=O)Nc1nnc(S(N)(=O)=O)s1 please.
[A] 17.33

[Q] Entry under review: COC(=O)CCC(=O)Nc1nnc(S(N)(=O)=O)s1 . Reported IOP?
[A] 16.67

[Q] Given the entry COC(=O)CCC(=O)/N=c1/sc(S(N)(=O)=O)nn1C , report its measured IOP.
[A] 17.83

[Q] Return reported IOP; argument: NS(=O)(=O)c1nnc(NC(=O)CCCCC(=O)O)s1
[A] 18

[Q] // IOP lookup, key: CCCCCOC(=O)CCC(=O)/N=c1/sc(S(N)(=O)=O)nn1C
[A] 17.83

[Q] # input compound: CC(C)(C)NC[C@H](O)COc1nsnc1N1CCOCC1 [TIMOLOL] ; wanted: its IOP
[A] 18.77

[Q] Record request: IOP value, item NS(=O)(=O)c1nnc(NC(=O)CCCC(=O)O)s1
[A] 17.83

[Q] Which IOP is listed for CCC(C)OC(=O)CCC(=O)Nc1nnc(S(N)(=O)=O)s1 (stereo not drawn) ?
[A] 17.17

[Q] Which IOP value is on record for COC(=O)CC(=O)Nc1nnc(S(N)(=O)=O)s1 ?
[A] 19.17

###

So I've got a bunch of compounds here, and I need their IOP values.
- Organism: Oryctolagus cuniculus
- PROTOCOL_DESCRIPTION: Effect on intraocular pressure in right eye was tested by using transition ocular hypertension model at basal condition
- Format: functional
Respond with a number, then the unit of measure.

[Q] What IOP value was documented for this compound, CCCCCOC(=O)CCC(=O)/N=c1/sc(S(N)(=O)=O)nn1C ?
[A] 15.67 mmHg

[Q] Can you share its IOP? I mean this compound: NS(=O)(=O)c1nnc(NC(=O)CCCC(=O)O)s1
[A] 15.5 mmHg

[Q] Would you kindly share the measured IOP for CCC(C)OC(=O)CCC(=O)Nc1nnc(S(N)(=O)=O)s1 (stereo unspecified) ?
[A] 15.67 mmHg

[Q] IOP lookup needed for NCCCCC(=O)Nc1nnc(S(N)(=O)=O)s1 , thanks.
[A] 15.83 mmHg

[Q] What does the record list as IOP for NS(=O)(=O)c1nnc(NC(=O)CCCCCCCC(=O)O)s1 ?
[A] 15.83 mmHg

[Q] Bench note: what IOP did COC(=O)CCC(=O)Nc1nnc(S(N)(=O)=O)s1 show?
[A] 15.67 mmHg
